test: Cytotoxicity against African green monkey Vero cells assessed as inhibition of cell viability incubated for 2 hrs by MTS assay; type: toxicity, cell-based; settings: chlorocebus sabaeus
Recorded endpoint: CC50 at 2 h

Item smiles	Meas value
C[C@@H]1[C@H](O)[C@@H](C)/C=C/C=C/C=C/C=C/C=C/C=C/C=C/[C@H](O[C@@H]2O[C@H](C)[C@@H](O)[C@H](N)[C@@H]2O)C[C@@H]2O[C@](O)(C[C@@H](O)C[C@@H](O)[C@H](O)CC[C@@H](O)C[C@@H](O)CC(=O)O[C@H]1C)C[C@H](O)[C@H]2C(=O)O	~8 µg/mL

* * *

assay: Selectivity ratio of CC50 for cytotoxicity against African green monkey Vero cells to MIC for antifungal activity against Cryptococcus gattii NR 43214; assay type: toxicity, cell-based
Recorded endpoint: selectivity ratio

>>> df
                                   molecule  meas_value
0  Cc1nc(-c2ccc3ccccc3c2)sc1-c1nnc(N[C@@H]2CCCC[C@H]2N)o1 (relative stereo)          64
1  Cc1nc(-c2ccc3ccccc3c2)sc1-c1nnc(N[C@@H]2CCCC[C@@H]2N)o1 (relative stereo)          64

* * *

assay: Selectivity ratio of CC50 for cytotoxicity against human Caco-2 cells to MIC for antifungal activity against Cryptococcus gattii NR 43216; assay type: toxicity, cell-based
Some compounds, each annotated with its measured selectivity ratio.
Recorded endpoint: selectivity ratio

>>> df
                                   compound  meas_value
0  Cc1nc(-c2ccc3ccccc3c2)sc1-c1nnc(N[C@@H]2CCCC[C@H]2N)o1 (relative stereo)          64
1  Cc1nc(-c2ccc3ccccc3c2)sc1-c1nnc(N[C@@H]2CCCC[C@@H]2N)o1 (relative stereo)          64

* * *

Some molecules, each annotated with its measured selectivity ratio.
experiment: Selectivity ratio of CC50 for cytotoxicity against African green monkey Vero cells to MIC for antifungal activity against Cryptococcus neoformans NR 41300; type: toxicity, cell-based
Recorded endpoint: selectivity ratio

>>> df
                                   molecule  meas_value
0  Cc1nc(-c2ccc3ccccc3c2)sc1-c1nnc(N[C@@H]2CCCC[C@H]2N)o1 (relative stereo)          64
1  Cc1nc(-c2ccc3ccccc3c2)sc1-c1nnc(N[C@@H]2CCCC[C@@H]2N)o1 (relative stereo)          64

* * *

tested on: Cryptococcus neoformans; test: Antifungal activity against Cryptococcus neoformans NR 48770 assessed as inhibition of fungal growth incubated for 48 hrs by broth microdilution method; type: functional

Compound	Measure unit	MIC
Cc1nc(-c2ccc3ccccc3c2)sc1-c1nnc(N[C@@H]2CCCC[C@@H]2N)o1 (relative stereo)	µg/mL	1
OC(Cn1cncn1)(Cn1cncn1)c1ccc(F)cc1F [FLUCONAZOLE]	µg/mL	2
Cc1nc(-c2ccc3ccccc3c2)sc1-c1nnc(N[C@@H]2CCCC[C@H]2N)o1 (relative stereo)	µg/mL	1
C[C@@H]1[C@H](O)[C@@H](C)/C=C/C=C/C=C/C=C/C=C/C=C/C=C/[C@H](O[C@@H]2O[C@H](C)[C@@H](O)[C@H](N)[C@@H]2O)C[C@@H]2O[C@](O)(C[C@@H](O)C[C@@H](O)[C@H](O)CC[C@@H](O)C[C@@H](O)CC(=O)O[C@H]1C)C[C@H](O)[C@H]2C(=O)O [AMPHOTERICIN B]	µg/mL	1

* * *

Some molecules, each annotated with its measured MIC.
tested on: Lactobacillus gasseri; assay: Antibacterial activity against Lactobacillus gasseri HM400 assessed as inhibition of bacterial growth; type: toxicity, organism-based

Molecule	System name	MIC
C[C@@H]1[C@H](O)[C@@H](C)/C=C/C=C/C=C/C=C/C=C/C=C/C=C/[C@H](O[C@@H]2O[C@H](C)[C@@H](O)[C@H](N)[C@@H]2O)C[C@@H]2O[C@](O)(C[C@@H](O)C[C@@H](O)[C@H](O)CC[C@@H](O)C[C@@H](O)CC(=O)O[C@H]1C)C[C@H](O)[C@H]2C(=O)O	Lactobacillus gasseri	> 128 µg/mL
OC(Cn1cncn1)(Cn1cncn1)c1ccc(F)cc1F	Lactobacillus gasseri	> 128 µg/mL
Cc1nc(-c2ccc3ccccc3c2)sc1-c1nnc(N[C@@H]2CCCC[C@H]2N)o1 (relative stereo)	Lactobacillus gasseri	> 128 µg/mL
Cc1nc(-c2ccc3ccccc3c2)sc1-c1nnc(N[C@@H]2CCCC[C@@H]2N)o1 (relative stereo)	Lactobacillus gasseri	> 128 µg/mL

* * *

test: Tmax in Sprague-Dawley rat at 25 mg/kg, po administered as single dose by LC/MS/MS analysis; assay type: ADME, organism-based; details: in vivo
Recorded endpoint: Tmax (h)

                                   compound  measure_unit  meas_value
0  Cc1nc(-c2ccc3ccccc3c2)sc1-c1nnc(N[C@@H]2CCCC[C@H]2N)o1 (relative stereo)             h           3

* * *

assay: Selectivity ratio of CC50 for cytotoxicity against African green monkey Vero cells to MIC for antifungal activity against Cryptococcus gattii NR 43213; format: toxicity, cell-based
Recorded endpoint: selectivity ratio

                                   molecule  recorded_endpoint  meas_value
0  Cc1nc(-c2ccc3ccccc3c2)sc1-c1nnc(N[C@@H]2CCCC[C@H]2N)o1 (relative stereo)  selectivity ratio          64
1  Cc1nc(-c2ccc3ccccc3c2)sc1-c1nnc(N[C@@H]2CCCC[C@@H]2N)o1 (relative stereo)  selectivity ratio          64

* * *

test system: Nakaseomyces glabratus; experiment: Antifungal activity against Candida glabrata ATCC MYA2950 assessed as inhibition of fungal growth incubated for 24 hrs by broth microdilution method; format: functional
Recorded endpoint: MIC (mg/L)

Compound	Meas value
OC(Cn1cncn1)(Cn1cncn1)c1ccc(F)cc1F	16
Cc1nc(-c2ccc3ccccc3c2)sc1-c1nnc(N[C@@H]2CCCC[C@H]2N)o1 (relative stereo)	1
C[C@@H]1[C@H](O)[C@@H](C)/C=C/C=C/C=C/C=C/C=C/C=C/C=C/[C@H](O[C@@H]2O[C@H](C)[C@@H](O)[C@H](N)[C@@H]2O)C[C@@H]2O[C@](O)(C[C@@H](O)C[C@@H](O)[C@H](O)CC[C@@H](O)C[C@@H](O)CC(=O)O[C@H]1C)C[C@H](O)[C@H]2C(=O)O	1
Cc1nc(-c2ccc3ccccc3c2)sc1-c1nnc(N[C@@H]2CCCC[C@@H]2N)o1 (relative stereo)	0.5

* * *

Some compounds, each annotated with its measured MIC.
system: Candida albicans; experiment: Antifungal activity against Candida albicans NR 29448 assessed as inhibition of fungal growth incubated for 24 hrs by broth microdilution method; assay type: functional

Compound	Result qualifier	MIC [µg/mL]
OC(Cn1cncn1)(Cn1cncn1)c1ccc(F)cc1F [FLUCONAZOLE]	>	128
Cc1nc(-c2ccc3ccccc3c2)sc1-c1nnc(N[C@@H]2CCCC[C@H]2N)o1 (relative stereo)	=	4
Cc1nc(-c2ccc3ccccc3c2)sc1-c1nnc(N[C@@H]2CCCC[C@@H]2N)o1 (relative stereo)	=	4
C[C@@H]1[C@H](O)[C@@H](C)/C=C/C=C/C=C/C=C/C=C/C=C/C=C/[C@H](O[C@@H]2O[C@H](C)[C@@H](O)[C@H](N)[C@@H]2O)C[C@@H]2O[C@](O)(C[C@@H](O)C[C@@H](O)[C@H](O)CC[C@@H](O)C[C@@H](O)CC(=O)O[C@H]1C)C[C@H](O)[C@H]2C(=O)O [AMPHOTERICIN B]	=	1

* * *

assay: Selectivity ratio of CC50 for cytotoxicity against human Caco-2 cells to MIC for antifungal activity against Cryptococcus neoformans NR 48770; assay type: toxicity, cell-based
Recorded endpoint: selectivity ratio

>>> print(df.to_string())
                                   compound  meas_value
0  Cc1nc(-c2ccc3ccccc3c2)sc1-c1nnc(N[C@@H]2CCCC[C@@H]2N)o1 (relative stereo)          64
1  Cc1nc(-c2ccc3ccccc3c2)sc1-c1nnc(N[C@@H]2CCCC[C@H]2N)o1 (relative stereo)          64

* * *

test system: Candida parapsilosis; test: Antifungal activity against Candida parapsilosis ATCC 22019 assessed as inhibition of fungal growth incubated for 24 hrs by broth microdilution method; type: functional; details: Lodderomyces parapsilosis
Recorded endpoint: MIC (µg/mL)

Compound	System name	Meas value
C[C@@H]1[C@H](O)[C@@H](C)/C=C/C=C/C=C/C=C/C=C/C=C/C=C/[C@H](O[C@@H]2O[C@H](C)[C@@H](O)[C@H](N)[C@@H]2O)C[C@@H]2O[C@](O)(C[C@@H](O)C[C@@H](O)[C@H](O)CC[C@@H](O)C[C@@H](O)CC(=O)O[C@H]1C)C[C@H](O)[C@H]2C(=O)O [AMPHOTERICIN B]	Candida parapsilosis	0.5
Cc1nc(-c2ccc3ccccc3c2)sc1-c1nnc(N[C@@H]2CCCC[C@H]2N)o1 (relative stereo)	Candida parapsilosis	1
OC(Cn1cncn1)(Cn1cncn1)c1ccc(F)cc1F [FLUCONAZOLE]	Candida parapsilosis	1
Cc1nc(-c2ccc3ccccc3c2)sc1-c1nnc(N[C@@H]2CCCC[C@@H]2N)o1 (relative stereo)	Candida parapsilosis	1
